Target: M2 protein of influenza A/Hong Kong/483/97 (H5N1) (Influenza A virus A/Hong Kong/483/97)
// reported FACS M2-HK MFI for each item listed
State the answer as a number, implicitly in MFI.

[[record]]
binder = "3259_J21 (antibody, V domains shown) VH: QVQLQESGPRVVRPSETLSLTCTVSGGSISSYNWIWIRQPPGKGLEWIGHIYDYGRTFYNSSLQSRPTISVDASKNQLSLRLTSVTASDTAVYYCARPLGILHYYAMDLWGQGTTVTVSS VL: DIQMTQSPLSVSVSVGDRVTIACRASQSIDKFLNWYQQKPGKAPKLLIYGASNLHSGAPSRFSASGSGTDFTLTITNIQTEDFATYLCQQSFSVPAFGGGTKVEIK"
experimental_result = 1670


In plain terms, 3244_H04 (antibody, V domains shown) VH: EVQLVESGGGLVQPGGSLRLSCTASGLSVSSTYMNWVRQAPGKGLEWVSVFYSETRTYYADSVKGRFTVSRHNSNNTLYLQMNSLRAEDTAVYYCARVQRLSYGMDVWGQGTTVTVSS VL: DIQMTQSPSSLSASVGDRVTITCRASQSISTYLNWYQKRPGKAPKLLVYGASSLQSGVPSRFSGSGSGTDFTLTIASLQPEDSAVYYCQQTYSIPLFGQGTRLEIK has a documented FACS M2-HK MFI of 963

In plain terms, 3139_P23 (antibody, V domains shown) VH: QVQLQESGPRLVKPSESLSLTCTVSGGSISNSFWGWIRQPPGEGLEWIGYVYNSGNTKYNPSLKSRVTISRDTSKSQLYMKLRSVTAADTAVYYCARHDDASHGYSISWGHGTLVTVSS VL: DIQMTQSPSSLSASVGDRVTITCRASQTISTYLNWYQQKSGKAPKLLIYAASGLQSGVPSRFSGSGSGTDFTLTISSLQPEDFATYFCQQSYNTPLTFGQGTKVEIK has a documented FACS M2-HK MFI of 110
